tested on: Paracoccus carotinifaciens strain E-396 (FERM BP-4283); experiment: Amino acid supplementation (20 amino acids), test tube culture, carotenoid by HPLC and growth by OD610; assay type: cell-based; details: amino acid at 1.0 g/L; culture solution, 28° C. for 4 days
Where Astaxanthin equals or exceeds 5 mg/L, the correct label is 1.0; where it does not, the label is 0.0.

Worked examples follow.
>  <Smiles repr>
NCCCC[C@H](N)C(=O)O

>  <Category>
0.0

$$$$
>  <Smiles repr>
N[C@@H](Cc1c[nH]c2ccccc12)C(=O)O

>  <Category>
0.0

$$$$
>  <Smiles repr>
CSCC[C@H](N)C(=O)O

>  <Category>
0.0

$$$$
>  <Smiles repr>
N[C@@H](CC(=O)O)C(=O)O

>  <Category>
1.0

$$$$
>  <Smiles repr>
NC(=O)CC[C@H](N)C(=O)O

>  <Category>
1.0

$$$$

Given N[C@@H](CS)C(=O)O , state whether its Astaxanthin is at least 5 mg/L.
0.0

Given CC(C)C[C@H](N)C(=O)O , state whether its Astaxanthin is at least 5 mg/L.
0.0

----------
system: Paracoccus carotinifaciens strain E-396 (FERM BP-4283); experiment: Amino acid supplementation (20 amino acids), test tube culture, carotenoid by HPLC and growth by OD610; type: cell-based; conditions: amino acid at 1.0 g/L, versus tube with no amino acid
Measurement kind: effect on the production of carotenoid pigments

Worked set:
>  <Compound>
CC(C)C[C@H](N)C(=O)O [Leucine, leucine]

>  <Result>
stimulatory effect

$$$$
>  <Compound>
N[C@@H](Cc1ccc(O)cc1)C(=O)O [Tyrosine, tyrosine]

>  <Result>
stimulatory effect

$$$$
>  <Compound>
N[C@@H](Cc1ccccc1)C(=O)O [Phenylalanine, phenylalanine]

>  <Result>
stimulatory effect

$$$$
>  <Compound>
N[C@@H](CS)C(=O)O [Cysteine, cysteine]

>  <Result>
clear inhibitory effect

$$$$

Which effect on the production of carotenoid pigments value belongs to CC[C@H](C)[C@H](N)C(=O)O [Isoleucine, isoleucine] ?
clear inhibitory effect

Which effect on the production of carotenoid pigments value belongs to NC(=O)CC[C@H](N)C(=O)O [Glutamine, glutamine] ?
stimulatory effect

Which effect on the production of carotenoid pigments value belongs to N[C@@H](CO)C(=O)O [Serine, serine] ?
stimulatory effect

Which effect on the production of carotenoid pigments value belongs to N[C@@H](CCC(=O)O)C(=O)O [Glutamic acid, glutamic acid] ?
stimulatory effect

Which effect on the production of carotenoid pigments value belongs to O=C(O)[C@@H]1CCCN1 [Proline, proline] ?
stimulatory effect

Which effect on the production of carotenoid pigments value belongs to CSCC[C@H](N)C(=O)O [Methionine, methionine] ?
clear inhibitory effect

Which effect on the production of carotenoid pigments value belongs to C[C@@H](O)[C@H](N)C(=O)O [Threonine, threonine] ?
stimulatory effect

----------
system: Paracoccus carotinifaciens strain E-396 (FERM BP-4283); assay: Amino acid supplementation (20 amino acids), test tube culture, carotenoid by HPLC and growth by OD610; format: cell-based; details: amino acid at 1.0 g/L; culture solution, 28° C. for 4 days
Where Astaxanthin equals or exceeds 6 mg/L, the correct label is criterion met; where it does not, the label is criterion not met.

Worked examples follow.
>  <Smiles repr>
NC(=O)C[C@H](N)C(=O)O

>  <Measurement target>
Paracoccus carotinifaciens strain E-396 (FERM BP-4283)

>  <Category>
criterion met

$$$$
>  <Smiles repr>
C[C@H](N)C(=O)O

>  <Measurement target>
Paracoccus carotinifaciens strain E-396 (FERM BP-4283)

>  <Category>
criterion met

$$$$
>  <Smiles repr>
CC[C@H](C)[C@H](N)C(=O)O

>  <Measurement target>
Paracoccus carotinifaciens strain E-396 (FERM BP-4283)

>  <Category>
criterion not met

$$$$
>  <Smiles repr>
C[C@@H](O)[C@H](N)C(=O)O

>  <Measurement target>
Paracoccus carotinifaciens strain E-396 (FERM BP-4283)

>  <Category>
criterion not met

$$$$

Given N[C@@H](CCC(=O)O)C(=O)O , state whether its Astaxanthin is at least 6 mg/L.
criterion met

Given O=C(O)[C@@H]1CCCN1 , state whether its Astaxanthin is at least 6 mg/L.
criterion not met

Given CC(C)[C@H](N)C(=O)O , state whether its Astaxanthin is at least 6 mg/L.
criterion not met

Given NCC(=O)O , state whether its Astaxanthin is at least 6 mg/L.
criterion met

Given N[C@@H](Cc1ccc(O)cc1)C(=O)O , state whether its Astaxanthin is at least 6 mg/L.
criterion not met

Given N[C@@H](Cc1c[nH]cn1)C(=O)O , state whether its Astaxanthin is at least 6 mg/L.
criterion not met
